Some compounds, each annotated with its measured z-score.
Assay details: budding yeast growth changes without added modifier – OD600, strain BY4716, 24 h, basal condition, primary screen (AID 1173)
Conditions used: S. cerevisiae BY4716 growth, OD600, 24 h; higher = more signal, called active from +8 up or from −8 down
Assay endpoint: z-score

INSERT INTO results (compound, reported) VALUES
  ('COCCOC(=O)N1C(=O)[C@@]2(c3ccccc31)[C@H](C(=O)N1CCCCCCC1)[C@H]1C(=O)O[C@H](c3ccccc3)[C@H](c3ccccc3)N1[C@@H]2c1ccccc1OCCO', 0.406),
  ('Cc1ccc(S[C@]2(C(=O)NCCN3CCOCC3)CC(=O)N(C3CCCCC3)[C@@H]2c2ccc(CO)cc2)cc1', 0.436),
  ('CN1C(=O)C2C=CC(C(O)C(C)(C)C)N(Nc3ccccc3)C2C1=O (centres undefined)', 0.66),
  ('C=CCC(OC(C)=O)[C@@H]1[C@@H](N(Cc2ccc(-c3ccccc3)cc2)C(=O)c2ccc(C)cc2)c2cc(OCCCO)ccc2N1C(=O)c1ccc2ccccc2n1 (some centres undefined)', -0.769),
  ('O=C1OCCC/C=C\[C@H]2OC34C=CCN(Cn5nnc6ccccc65)C(=O)[C@H]3N(CCCO)C(=O)[C@@H]4C12 (some centres undefined)', 0.351),
  ('C=C(/C(=C/C[C@@H](OC(C)=O)c1ccc(CO)o1)c1cnc2ccccc2c1)C(C)C', -0.177),
  ('COc1ccc(C#Cc2ccc3c(c2)[C@]2(C(=O)N3)[C@H](C(=O)N3CCc4cc(OC)c(OC)cc4C3)[C@H]3C(=O)O[C@H](c4ccccc4)[C@H](c4ccccc4)N3[C@@H]2c2ccc(OCCO)cc2)cc1', 2.37),
  ('CCOC(=O)C1=CC[C@@H](c2ccccc2)N(S(=O)(=O)c2ccc(C)cc2)[C@H]1c1ccc(C#N)cc1', 1.5),
  ('CC(C)CNC(=O)[C@@]1(C)c2ccccc2C(=O)N(C(C)C)[C@H]1c1ccc(CO)cc1', -0.128),
  ('CO[C@H]1O[C@H](CO)[C@@H](OC(=O)Nc2ccc(C(F)(F)F)cc2)[C@H](OC(=O)Nc2ccccc2)[C@@H]1OC(=O)Nc1ccccc1', -0.332),
  ('C=C(C(=O)CC[C@@H](OC(=O)c1cccnc1)c1ccc(CO)o1)C(C)C', -0.708),
  ('[N-]=[N+]=NCc1ccccc1C[C@]1(C(=O)NCCN2CCOCC2)N=C(c2ccc(OCCCO)cc2)O[C@H]1c1ccccc1CN=[N+]=[N-]', -2.56),
  ('COc1ccc([Si](C)(C)[C@H]2[C@H](CC(=O)N3CCC[C@H]3CO)O[C@@]3(C(=O)N(Cc4cccc(N5CCC5=O)c4)c4ccccc43)[C@@H]2C)cc1', 0.124),
  ('O=C1O[C@H](c2ccccc2)[C@H](c2ccccc2)N2[C@H]1[C@@H](C(=O)NC[C@H](O)c1ccccc1)[C@]1(C(=O)Nc3ccc(C#CC4=CCCCC4)cc31)[C@H]2c1ccc(O)cc1', -0.48);

Just for reference, PubChem BioAssay is where these values come from.
